tested on: MDA-MB-231 breast carcinoma cells; test: Cytotoxicity WST-1 assay; type: cell-based; conditions: Homo sapiens; MDA-MB-231 cells; WST-1; triplicate
Observed Property: IC50

- Molecule: "COC(=O)/C(=C\\CC/C(C)=C/CC/C(C)=C/CC1=CC(=O)C=C(C)C1=O)CCC=C(C)C"
  Target Or Test System: "MDA-MB-231 breast carcinoma cells"
  Endpoint Result: "70 µM"
- Molecule: "CC(C)=CCC/C(=C/CC/C(C)=C/CC/C(C)=C/CC1=CC(=O)C=C(C)C1=O)CO"
  Target Or Test System: "MDA-MB-231 breast carcinoma cells"
  Endpoint Result: "99 µM"
- Molecule: "CC(C)=CCC/C(C=O)=C/CC/C(C)=C/CC/C(C)=C/CC1=CC(=O)C=C(C)C1=O [10Z-sargaquinal (4), 2’E,6’E,10’Z-sargaquinal]"
  Target Or Test System: "MDA-MB-231 breast carcinoma cells"
  Endpoint Result: "211 µM"
- Molecule: "CC(C)=CCC/C(=C/CC/C(C)=C/CCc1ccc2c(c1)C(=O)C=C(C)C2=O)C(=O)O"
  Target Or Test System: "MDA-MB-231 breast carcinoma cells"
  Endpoint Result: "2410 µM"
- Molecule: "CC(C)=CCC/C(C=O)=C\\CC/C(C)=C/CC/C(C)=C/CC1=CC(=O)C=C(C)C1=O [10E-sargaquinal (9), 10’E-sargaquinal]"
  Target Or Test System: "MDA-MB-231 breast carcinoma cells"
  Endpoint Result: "69 µM"
- Molecule: "CC(C)=CCC/C(=C/CC/C(C)=C/CCC1(C)C=Cc2cc(O)cc(C)c2O1)CO (stereo not shown)"
  Target Or Test System: "MDA-MB-231 breast carcinoma cells"
  Endpoint Result: "187 µM"
- Molecule: "CC(C)=CCC/C(=C/CC/C(C)=C/CC/C(C)=C/Cc1cc(O)cc(C)c1O)C(=O)O [Sargahydroquinoic acid (1), sargahydroquinoic acid]"
  Target Or Test System: "MDA-MB-231 breast carcinoma cells"
  Endpoint Result: "70 µM"
- Molecule: "CC(C)=CCC/C(=C/CC/C(C)=C/CCC1(C)C=Cc2cc(O)cc(C)c2O1)C(=O)O (stereo not shown)"
  Target Or Test System: "MDA-MB-231 breast carcinoma cells"
  Endpoint Result: "56 µM"
- Molecule: "CC(=O)Oc1cc(C)c(OC(C)=O)c(C/C=C(\\C)CC/C=C(\\C)CC/C=C(/CCC=C(C)C)C(=O)O)c1 [Sargahydroquinoic acid di-acetate (2), Diacetyl Sargahydroquinoic Acid]"
  Target Or Test System: "MDA-MB-231 breast carcinoma cells"
  Endpoint Result: "286 µM"
- Molecule: "CC(C)=CCC/C(=C/CC/C(C)=C/CC/C(C)=C/CC1=CC(=O)C=C(C)C1=O)C(=O)O"
  Target Or Test System: "MDA-MB-231 breast carcinoma cells"
  Endpoint Result: "658 µM"
